Ref: patent US9796733B2

Entries annotated with measured EC50
- studySystem: sGC α1/β1 heterodimer (Homo sapiens, UniProt Q02108+Q02153)
- Sequence (Q02108 1-690): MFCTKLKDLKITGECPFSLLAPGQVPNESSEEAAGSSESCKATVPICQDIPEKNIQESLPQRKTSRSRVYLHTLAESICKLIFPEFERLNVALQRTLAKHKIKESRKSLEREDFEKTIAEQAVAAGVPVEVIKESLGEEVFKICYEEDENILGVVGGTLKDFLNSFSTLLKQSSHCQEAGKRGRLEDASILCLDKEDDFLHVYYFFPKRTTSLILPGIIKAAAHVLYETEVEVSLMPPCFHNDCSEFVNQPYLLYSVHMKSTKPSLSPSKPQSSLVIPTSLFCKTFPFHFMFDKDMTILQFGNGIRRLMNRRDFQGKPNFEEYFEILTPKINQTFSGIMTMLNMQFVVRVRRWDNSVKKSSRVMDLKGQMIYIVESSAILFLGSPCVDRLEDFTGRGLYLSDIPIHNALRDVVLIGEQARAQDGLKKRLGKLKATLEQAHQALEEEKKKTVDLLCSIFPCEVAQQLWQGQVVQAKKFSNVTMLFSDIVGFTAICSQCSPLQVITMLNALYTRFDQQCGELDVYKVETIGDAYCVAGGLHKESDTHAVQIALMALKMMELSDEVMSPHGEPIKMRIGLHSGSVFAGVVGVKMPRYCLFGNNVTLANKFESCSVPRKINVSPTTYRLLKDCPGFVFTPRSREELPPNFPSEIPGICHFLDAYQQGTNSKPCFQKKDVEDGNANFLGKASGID
- Sequence (Q02153 1-619): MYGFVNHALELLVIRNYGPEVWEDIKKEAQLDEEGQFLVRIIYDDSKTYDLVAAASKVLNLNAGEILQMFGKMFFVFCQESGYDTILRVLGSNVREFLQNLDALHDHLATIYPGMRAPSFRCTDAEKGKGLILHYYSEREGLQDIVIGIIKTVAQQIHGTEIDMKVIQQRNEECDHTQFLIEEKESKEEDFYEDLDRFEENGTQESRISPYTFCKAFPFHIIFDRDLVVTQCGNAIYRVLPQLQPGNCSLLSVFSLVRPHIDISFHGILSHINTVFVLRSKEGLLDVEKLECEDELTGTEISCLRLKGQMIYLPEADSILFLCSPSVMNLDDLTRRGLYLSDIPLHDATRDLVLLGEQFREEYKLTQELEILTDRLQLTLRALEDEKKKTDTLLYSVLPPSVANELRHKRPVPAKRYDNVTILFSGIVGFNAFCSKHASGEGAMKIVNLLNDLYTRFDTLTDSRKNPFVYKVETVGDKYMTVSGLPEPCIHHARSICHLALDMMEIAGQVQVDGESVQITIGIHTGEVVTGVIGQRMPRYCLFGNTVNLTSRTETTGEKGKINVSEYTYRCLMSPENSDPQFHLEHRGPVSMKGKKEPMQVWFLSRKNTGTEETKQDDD
- testMethodNotes: Cell-based sGC functional assay (CASA assay): cGMP generation in CHO-K1/sGC cells, HTRF detection
- measurementConditions: inflection point (IP) of cGMP generation in CHO-K1/sGC cells, 4P fit; activity expressed as percentage of Compound A

# compound, EC50 (nM)
data = [
    ("CCOc1ccc(C2(C)C(=O)Nc3nc(-c4cn5ccnc5c(CCC(F)(F)C(F)(F)F)n4)nc(N)c32)nc1 (stereo not shown) [Example 224A]", 153),
    ("CC1(c2ccc(F)cc2)C(=O)Nc2nc(-c3cn4c(Br)cnc4c(CCC(F)(F)C(F)(F)F)n3)nc(N)c21 (stereo not shown) [Example 254A]", 57),
    ("Nc1nc(-c2cn3ccnc3c(CCC(F)(F)C(F)(F)F)n2)nc2c1C(c1ccc(Cl)cc1)(C1CC1)C(=O)N2 (stereo not shown) [Example 235B]", 36),
    ("CC1(c2ccc(F)cc2)C(=O)Nc2nc(-c3cn4c(CCC5CCCCC5)cnc4cn3)nc(N)c21 (stereo not shown) [Example 261A]", 822),
    ("Nc1nc(-c2cn3ccnc3c(CCC(F)(F)F)n2)nc2c1C(c1ccc(F)c(F)c1)(C1CC1)C(=O)N2 (stereo not shown) [Example 318A]", 2180),
    ("CC1(c2ccc(F)cc2)C(=O)Nc2nc(-c3cn4ccnc4c(CCc4cccc(F)c4)n3)nc(N)c21 (stereo not shown) [Example 4A]", 32),
    ("CC1(c2cccc(F)c2)C(=O)Nc2nc(-c3cn4ccnc4c(CCC(F)(F)C(F)(F)F)n3)nc(N)c21 (stereo not shown) [Example 231A]", 50),
]
